target_system: CYP17 (steroid 17-alpha-hydroxylase/17,20 lyase) (Homo sapiens, UniProt P05093)
Sequence (P05093 whole entry): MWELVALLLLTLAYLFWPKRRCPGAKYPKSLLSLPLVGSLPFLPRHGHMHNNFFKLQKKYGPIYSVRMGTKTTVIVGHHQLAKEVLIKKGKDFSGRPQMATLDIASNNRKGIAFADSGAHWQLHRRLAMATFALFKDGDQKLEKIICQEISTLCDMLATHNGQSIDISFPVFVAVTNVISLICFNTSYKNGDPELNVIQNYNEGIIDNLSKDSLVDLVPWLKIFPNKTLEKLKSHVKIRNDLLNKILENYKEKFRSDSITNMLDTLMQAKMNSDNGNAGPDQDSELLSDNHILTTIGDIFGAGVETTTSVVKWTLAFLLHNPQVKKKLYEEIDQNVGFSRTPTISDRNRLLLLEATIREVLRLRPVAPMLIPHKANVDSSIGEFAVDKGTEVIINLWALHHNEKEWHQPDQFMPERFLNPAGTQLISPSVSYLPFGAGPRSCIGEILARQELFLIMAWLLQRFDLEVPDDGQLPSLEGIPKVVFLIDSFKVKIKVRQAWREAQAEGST
test_protocol: Inhibition of human CYP17 expressed in Escherichia coli coexpressing NADPH reductase at 2 uM
Listed next: entries and their corresponding inhibition at 2 µM.
Numbers only; they are read as %.

Known results for compounds:
{"columns": ["compound", "units", "recorded_measurement"],
 "data": [
  ["Cc1ccc(CC(Cc2ccc(-c3ccccc3)cc2)n2ccnc2)cc1 (stereo unspecified)", "%", 32.8],
  ["CC(C)(C)c1ccc(CN(Cc2ccc(Cl)cc2Cl)n2cnnc2)cc1", "%", 4]
]}

Field request: inhibition at 2 µM | item: Clc1ccc(CN(CC/C=C/c2ccccc2)n2cncn2)c(Cl)c1
21.1

Please give the measured inhibition at 2 µM for this compound: COc1ccccc1CN(Cc1ccc(-c2ccccc2)cc1)n1ccnc1
42.9
